# experiment.summary: viability loss with induced miR-34 in A549 – imaging, A549 dox-inducible miR-34, nuclei and caspase counts, primary screen (AID 1347080)
# protocol.conditions: A549 miR-34 inducible, Hoechst nuclei count, 48 h; measured here: total cells without miR-34 induction
For each of the compounds below, state its cell count.
Give bare numbers.

compound	cell count
CN(C)CC/C=C1/c2ccccc2COc2ccc(CC(=O)O)cc21	10900
CC(C)(O)c1ccccc1CC[C@@H](SCC1(CC(=O)O)CC1)c1cccc(/C=C/c2ccc3ccc(Cl)cc3n2)c1	10900
Cc1cc(O)cc(C)c1Cl	10800

Value sought for every listed compound: cell count.
1. CC(C)[C@H](N)C(=O)OCCOCn1cnc2c(=O)[nH]c(N)nc21
2. CO[C@@H]1[C@@H](OC(N)=O)[C@@H](O)[C@H](Oc2ccc3c(O)c(NC(=O)c4ccc(O)c(CC=C(C)C)c4)c(=O)oc3c2C)OC1(C)C

Marked response:
1. 11500
2. 13600

Value sought for every listed compound: cell count.
1. COc1cccc(OC)c1C(=O)N[C@@H]1C(=O)N2[C@@H]1SC(C)(C)[C@@H]2C(=O)O
2. Nc1nccs1
3. CN1C(C)(C)CCCC1(C)C

Marked response:
1. 12400
2. 8650
3. 10300

Value sought for every listed compound: cell count.
1. CC(=O)OCC1=C(C(=O)O)N2C(=O)[C@@H](NC(=O)CSc3ccncc3)[C@H]2SC1
2. CNC[C@H](O)c1ccc(O)c(O)c1
3. O=c1cc(CO)occ1O
4. NC[C@H]1O[C@H](O[C@H]2[C@H](O)[C@@H](O[C@H]3O[C@H](CO)[C@@H](O)[C@H](N)[C@H]3O)[C@H](N)C[C@@H]2N)[C@H](N)[C@@H](O)[C@@H]1O
5. CCCCN(CCCC)CCC(O)c1cc2c(Cl)cc(Cl)cc2c2cc(C(F)(F)F)ccc12 (stereo not drawn)

Marked response:
1: 12700; 2: 10500; 3: 9780; 4: 13000; 5: 8580

----------
# Test system: R275C
# experiment.summary: BK channel mutant inhibitors and activators – cell-based, U2OS BacMam, thallium flux, beta subunits, selectivity assay, profiling panel (AID 1259406);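 note: initial slope of Thallos dye fluorescence rise after thallium is added; log ratio against the mean of 0.3% DMSO vehicle wells on the same plate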
# protocol.conditions: U2OS BacMam BK variants, at 30 µM
measurement.name: log fold change Tl+ flux
One number for each entry.

Previously resolved entries follow.
> print(dat)
                                   compound          measurement.name  measured.value
1  C#C[C@]1(O)CC[C@H]2[C@@H]3CCc4cc(OC)ccc4[C@H]3CC[C@@]21C  log fold change Tl+ flux         -0.0453
2   COc1ccc(C(=O)NCc2ccc(OCCN(C)C)cc2)cc1OC  log fold change Tl+ flux         -0.0872
3          Nc1nc2c(ncn2COC(CO)CO)c(=O)[nH]1  log fold change Tl+ flux          0.0708
4  COc1ccc(C2CNC(=O)C2)cc1OC1CCCC1 (stereo unspecified)  log fold change Tl+ flux          0.0314
5  CCOc1cc(N)c(Cl)cc1C(=O)NCC1CN(Cc2ccc(F)cc2)CCO1 (stereo unspecified)  log fold change Tl+ flux         -0.0128

Value sought for every listed compound: log fold change Tl+ flux.
1. Cc1nc2ccc(CN(C)c3ccc(C(=O)N[C@@H](CCC(=O)O)C(=O)O)s3)cc2c(=O)[nH]1
2. NC(=O)OCC(COC(N)=O)c1ccccc1
3. NCC1CCC(C(=O)Oc2ccc(CCC(=O)O)cc2)CC1 (stereo unspecified)
4. CN1CCC(=C2c3ccccc3CC(=O)c3sccc32)CC1
5. Cc1ccsc1C(=CCCN1CCC[C@@H](C(=O)O)C1)c1sccc1C

Marked response:
1. -0.0146
2. -0.054
3. -0.0458
4. -0.082
5. -0.056

Exam item: Returns the measured log fold change Tl+ flux for the input compound. Input: "O=C1c2cccc3c2[C@H](CCC3)CN1[C@@H]1CN2CCC1CC2"
Marked response: -0.0177
